Measured values drawn from ChEMBL document CHEMBL6092194 for this set.

Below, each entry is listed alongside its reported selectivity ratio.
# Method: Selectivity index, ratio of HC50 for hemolytic activity in red blood cells (unknown origin) to MIC for antibacterial activity against penicillin-susceptible Escherichia coli ATCC25922
# Type: toxicity, cell-based, RBC
# Experimental parameters: read-out: Selectivity Index
API note: the answer field is a bare number with no unit suffix.

| Mol | selectivity ratio |
| --- | --- |
| CCCCCC[N+](C)(C)CCCOc1ccc(/C=C/C(=O)c2ccc(OCCC[N+](C)(C)CCCCCC)cc2)cc1.[Br-].[Br-] | 283 |

# next compound below
Reported selectivity ratio of CCCCCCOc1cc[n+](CCCOc2ccc(/C=C/C(=O)c3ccc(OCCC[n+]4ccc(OCCCCCC)cc4)cc3)cc2)cc1.[Br-].[Br-] : 329

----------
Below, each entry is listed alongside its reported MIC.
# Test system: Staphylococcus aureus
# Method: Antibacterial activity against penicillin-resistant Staphylococcus aureus ATCC43300 by broth microdilution assay
# Type: functional
The response must be a number in µg/mL with no trailing unit.

Consider the worked cases shown below.
| Mol | MIC (µg/mL) |
| --- | --- |
| CCCCCCCCCCCC[N+](C)(C)CCCCCCCOc1ccc(C(=O)/C=C/c2ccccc2)cc1.[Br-] | 16 |
| CCCCNC(=O)C[N+](C)(C)CCCOc1ccc(/C=C/C(=O)c2ccc(OCCC[N+](C)(C)CC(=O)NCCCC)cc2)cc1.[Br-].[Br-] | 8 |
| CCCC[N+](C)(C)CCCOc1ccc(C(=O)/C=C/c2ccccc2)cc1.[Br-] | 32 |
| CCCCCCCCCC[N+](C)(C)CCCCCCCOc1ccc(C(=O)/C=C/c2ccccc2)cc1.[Br-] | 4 |

Reported MIC of CCCCCCCCCCOc1cc[n+](CCCOc2ccc(/C=C/C(=O)c3ccc(OCCC[n+]4ccc(OCCCCCCCCCC)cc4)cc3)cc2)cc1.[Br-].[Br-] : 128

Reported MIC of CCCCCCCCCC[N+](C)(C)CCCCCOc1ccc(C(=O)/C=C/c2ccccc2)cc1.[Br-] : 4

Reported MIC of CCCCCC(=O)Nc1cc[n+](CCCOc2ccc(C(=O)/C=C/c3ccccc3)cc2)cc1.[Br-] : 4

Reported MIC of CCCCCC[N+](C)(C)CCCOc1ccc(/C=C/C(=O)c2ccc(OCCC[N+](C)(C)CCCCCC)cc2)cc1.[Br-].[Br-] : 1

Reported MIC of CCCCCCCCCCCC(=O)Nc1cc[n+](CCCOc2ccc(C(=O)/C=C/c3ccccc3)cc2)cc1.[Br-] : 16

Reported MIC of CCCCCCCCCCCC[N+](C)(C)CCCCCOc1ccc(C(=O)/C=C/c2ccccc2)cc1.[Br-] : 8

Reported MIC of CCCCCCCC[N+](C)(C)CCCCCCCOc1ccc(C(=O)/C=C/c2ccccc2)cc1.[Br-] : 2

Reported MIC of CCCCCCCCCC[N+](C)(C)CCCOc1ccc(/C=C/C(=O)c2ccc(OCCC[N+](C)(C)CCCCCCCCCC)cc2)cc1.[Br-].[Br-] : 2

Reported MIC of CCCC[N+](C)(C)CCCOc1ccc(/C=C/C(=O)c2ccc(OCCC[N+](C)(C)CCCC)cc2)cc1.[Br-].[Br-] : 8

----------
# Method: Cytotoxicity against human L02 cells assessed as cell survival at 16 microg/ml by CCK8 assay relative to control
# Type: toxicity, cell-based
# Experimental parameters: at 16 µg/mL, read-out: Survival
Readout: viability at 16 microg/ml

Reported viability at 16 microg/ml of CCCCCCOc1cc[n+](CCCOc2ccc(/C=C/C(=O)c3ccc(OCCC[n+]4ccc(OCCCCCC)cc4)cc3)cc2)cc1.[Br-].[Br-] : > 83%

----------
# System: Staphylococcus aureus
# Method: Antibacterial activity against penicillin-resistant Staphylococcus aureus ATCC43300 by broth microdilution assay
# Assay type: functional
Readout: MIC (µg/mL)
The response must be a number in µg/mL with no trailing unit.

| Mol | MIC [µg/mL] |
| --- | --- |
| CCCC[N+](C)(C)CCCCCOc1ccc(C(=O)/C=C/c2ccccc2)cc1.[Br-] | 32 |

Reported MIC of CCCCCCCC(=O)Nc1cc[n+](CCCOc2ccc(C(=O)/C=C/c3ccccc3)cc2)cc1.[Br-] : 2

----------
# Method: Selectivity index, ratio of HC50 for hemolytic activity in red blood cells (unknown origin) to MIC for antibacterial activity against penicillin-resistant Staphylococcus aureus ATCC43300
# Assay type: toxicity, cell-based, RBC
# Experimental parameters: read-out: Selectivity Index
Answer false if selectivity ratio is under 10, and true if it is 10 or more.

Record excerpt, results attached:
| Mol | Class name |
| --- | --- |
| CCCCCC[N+](C)(C)CCCOc1ccc(C(=O)/C=C/c2ccccc2)cc1.[Br-] | false |
| CCCCCC[N+](C)(C)CCCCCCCOc1ccc(C(=O)/C=C/c2ccccc2)cc1.[Br-] | true |
| CCCC[N+](C)(C)CCCCCOc1ccc(C(=O)/C=C/c2ccccc2)cc1.[Br-] | true |

Would you say CCCCCCCCCCCC[N+](C)(C)CCCOc1ccc(/C=C/C(=O)c2ccc(OCCC[N+](C)(C)CCCCCCCCCCCC)cc2)cc1.[Br-].[Br-] shows selectivity ratio at minimum 10? false

Would you say CCCCCCCCCC[N+](C)(C)CCCCCCCOc1ccc(C(=O)/C=C/c2ccccc2)cc1.[Br-] shows selectivity ratio at minimum 10? true

----------
# Tested on: Pseudomonas aeruginosa
# Method: Antibacterial activity against penicillin-susceptible Pseudomonas aeruginosa ATCC27853 by broth microdilution method
# Type: functional
Below, each entry is listed alongside its reported MIC.

Consider the worked cases shown below.
| Mol | MIC |
| --- | --- |
| CCCCCC(=O)Nc1cc[n+](CCCOc2ccc(C(=O)/C=C/c3ccccc3)cc2)cc1.[Br-] | > 128 mg/L |
| CCCCCCOc1cc[n+](CCCOc2ccc(/C=C/C(=O)c3ccc(OCCC[n+]4ccc(OCCCCCC)cc4)cc3)cc2)cc1.[Br-].[Br-] | 32 mg/L |
| CCCCCCCCCCCC[N+](C)(C)CCCOc1ccc(/C=C/C(=O)c2ccc(OCCC[N+](C)(C)CCCCCCCCCCCC)cc2)cc1.[Br-].[Br-] | > 128 mg/L |
| CN[C@H](CC(C)C)C(=O)N[C@H]1C(=O)N[C@@H](CC(N)=O)C(=O)N[C@H]2C(=O)N[C@H]3C(=O)N[C@H](C(=O)N[C@H](C(=O)O)c4cc(O)cc(O)c4-c4cc3ccc4O)[C@H](O)c3ccc(c(Cl)c3)Oc3cc2cc(c3O[C@@H]2O[C@H](CO)[C@@H](O)[C@H](O)[C@H]2O[C@H]2C[C@](C)(N)[C@H](O)[C@H](C)O2)Oc2ccc(cc2Cl)[C@H]1O | > 128 mg/L |
| CCCCCCCCCC[N+](C)(C)CCCCCCCOc1ccc(C(=O)/C=C/c2ccccc2)cc1.[Br-] | > 128 mg/L |
| CCCCCCNC(=O)C[N+](C)(C)CCCOc1ccc(/C=C/C(=O)c2ccc(OCCC[N+](C)(C)CC(=O)NCCCCCC)cc2)cc1.[Br-].[Br-] | 32 mg/L |
| CCCCNC(=O)C[N+](C)(C)CCCOc1ccc(/C=C/C(=O)c2ccc(OCCC[N+](C)(C)CC(=O)NCCCC)cc2)cc1.[Br-].[Br-] | > 128 mg/L |
| CCCCCCCCCC[N+](C)(C)CCCOc1ccc(C(=O)/C=C/c2ccccc2)cc1.[Br-] | > 128 mg/L |
| O=C(Cc1ccc(-c2ccccc2)cc1)Nc1cc[n+](CCCOc2ccc(C(=O)/C=C/c3ccccc3)cc2)cc1.[Br-] | > 128 mg/L |
| CCCCCCCCCCCC[N+](C)(C)CCCCCOc1ccc(C(=O)/C=C/c2ccccc2)cc1.[Br-] | > 128 mg/L |

Reported MIC (Pseudomonas aeruginosa) for entry O=C(/C=C/c1ccccc1)c1ccc(OCCC[n+]2ccc(NC(=O)c3ccc4ccccc4c3)cc2)cc1.[Br-] is > 128 mg/L

Reported MIC (Pseudomonas aeruginosa) for entry CCCCCCCCCCCC(=O)Nc1cc[n+](CCCOc2ccc(C(=O)/C=C/c3ccccc3)cc2)cc1.[Br-] is > 128 mg/L

Reported MIC (Pseudomonas aeruginosa) for entry CCCCCCCCCC[N+](C)(C)CCCOc1ccc(/C=C/C(=O)c2ccc(OCCC[N+](C)(C)CCCCCCCCCC)cc2)cc1.[Br-].[Br-] is 32 mg/L

----------
# System: Pseudomonas aeruginosa
# Method: Antibacterial activity against penicillin-susceptible Pseudomonas aeruginosa ATCC27853 by broth microdilution method
# Assay type: functional
Readout: MIC (µg/mL)
The response must be a number in µg/mL with no trailing unit.

Reported MIC of CCCCCCCCNC(=O)C[N+](C)(C)CCCOc1ccc(/C=C/C(=O)c2ccc(OCCC[N+](C)(C)CC(=O)NCCCCCCCC)cc2)cc1.[Br-].[Br-] : 128

Reported MIC of CCCCOc1cc[n+](CCCOc2ccc(/C=C/C(=O)c3ccc(OCCC[n+]4ccc(OCCCC)cc4)cc3)cc2)cc1.[Br-].[Br-] : 64

Reported MIC of CCCCCCCCOc1cc[n+](CCCOc2ccc(/C=C/C(=O)c3ccc(OCCC[n+]4ccc(OCCCCCCCC)cc4)cc3)cc2)cc1.[Br-].[Br-] : 128
